studyTarget: N-terminal Xaa-Pro-Lys N-methyltransferase 1 (Homo sapiens) (UniProt Q9BV86)
Sequence (Q9BV86 whole entry, looked up): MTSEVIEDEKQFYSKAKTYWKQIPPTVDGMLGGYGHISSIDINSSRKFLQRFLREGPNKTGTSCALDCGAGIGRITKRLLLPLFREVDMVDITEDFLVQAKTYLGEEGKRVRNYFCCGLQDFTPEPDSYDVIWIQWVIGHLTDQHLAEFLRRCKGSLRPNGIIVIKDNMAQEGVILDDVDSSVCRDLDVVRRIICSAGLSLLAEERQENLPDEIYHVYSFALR
assayProtocol: qHTS Assay for Inhibitors of N-terminal methyltransferase 1 (NTMT1): LOPAC validation of the NTMT1 SAHH-coupled ThioGlo3 Assay (AID 1347143);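 further: SAH from peptide methylation measured as thiol fluorescence via SAHH coupling and ThioGlo3; nearly all actives have a fitted effect of over 70% in size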
settings: recombinant NTMT1, SAHH-coupled ThioGlo3 fluorescence; series mostly up to 114 µM
Results filed as inconclusive are left out. Active and inactive are the calls of the source. The call rests on the fitted dose curve; in most records, active means well fitted inhibition curve with a large enough effect; inconclusive means small, poorly fitted or top-dose-only effect; inactive means no such curve, though single readings can be large or run the other way.
Outcome codes: active, inactive

compound: O=c1onc2n1-c1cc(Br)ccc1OC2
studyTarget: N-terminal Xaa-Pro-Lys N-methyltransferase 1 (Homo sapiens) (UniProt Q9BV86)
classLabel: inactive
--
compound: N[C@H](C(=O)O)[C@H](Cc1ccccc1)C(=O)O
studyTarget: N-terminal Xaa-Pro-Lys N-methyltransferase 1 (Homo sapiens) (UniProt Q9BV86)
classLabel: inactive
--
compound: NC1CCN(O)C1=O (stereo not drawn)
studyTarget: N-terminal Xaa-Pro-Lys N-methyltransferase 1 (Homo sapiens) (UniProt Q9BV86)
classLabel: inactive
--
compound: Oc1cc(O)c2c(c1)O[C@H](c1ccc(O)c(O)c1)[C@@H](O)C2
studyTarget: N-terminal Xaa-Pro-Lys N-methyltransferase 1 (Homo sapiens) (UniProt Q9BV86)
classLabel: active
--
compound: c1ccc2c(c1)CCC[C@H]2Nc1nc2ccccc2[nH]1
studyTarget: N-terminal Xaa-Pro-Lys N-methyltransferase 1 (Homo sapiens) (UniProt Q9BV86)
classLabel: inactive
--
compound: C#CCn1c(=O)c2c(ncn2C)n(C)c1=O
studyTarget: N-terminal Xaa-Pro-Lys N-methyltransferase 1 (Homo sapiens) (UniProt Q9BV86)
classLabel: inactive
--
compound: CC(C)(C)c1cc(/C=C(\C#N)C(N)=S)cc(C(C)(C)C)c1O
studyTarget: N-terminal Xaa-Pro-Lys N-methyltransferase 1 (Homo sapiens) (UniProt Q9BV86)
classLabel: inactive
--
compound: C=CC[C@H](N)C(=O)O
studyTarget: N-terminal Xaa-Pro-Lys N-methyltransferase 1 (Homo sapiens) (UniProt Q9BV86)
classLabel: inactive
--
compound: O=C1OC(=O)C2C3CCC(O3)C12 (stereo not drawn)
studyTarget: N-terminal Xaa-Pro-Lys N-methyltransferase 1 (Homo sapiens) (UniProt Q9BV86)
classLabel: inactive
--
compound: CCCCCCCCCC(=O)NC(CN1CCOCC1)[C@H](O)c1ccccc1 (stereo partly drawn)
studyTarget: N-terminal Xaa-Pro-Lys N-methyltransferase 1 (Homo sapiens) (UniProt Q9BV86)
classLabel: inactive
--
compound: COc1cc([C@@H]2c3cc4c(cc3[C@H](O)C3COC(=O)[C@@H]32)OCO4)cc(OC)c1OC (stereo partly drawn)
studyTarget: N-terminal Xaa-Pro-Lys N-methyltransferase 1 (Homo sapiens) (UniProt Q9BV86)
classLabel: inactive
--
compound: CCCCCCCCCCCCCCSCC(=O)O
studyTarget: N-terminal Xaa-Pro-Lys N-methyltransferase 1 (Homo sapiens) (UniProt Q9BV86)
classLabel: inactive
--
compound: O=C(O)/C=C/c1ccc(O)c(O)c1
studyTarget: N-terminal Xaa-Pro-Lys N-methyltransferase 1 (Homo sapiens) (UniProt Q9BV86)
classLabel: active
--
compound: C=C(C)C1CC=C(C(=O)O)CC1 (stereo not drawn)
studyTarget: N-terminal Xaa-Pro-Lys N-methyltransferase 1 (Homo sapiens) (UniProt Q9BV86)
classLabel: inactive
--
compound: OCC1NCC(O)C(O)C1O (stereo not drawn)
studyTarget: N-terminal Xaa-Pro-Lys N-methyltransferase 1 (Homo sapiens) (UniProt Q9BV86)
classLabel: inactive
--
compound: NC1CONC1=O (stereo not drawn)
studyTarget: N-terminal Xaa-Pro-Lys N-methyltransferase 1 (Homo sapiens) (UniProt Q9BV86)
classLabel: inactive
--
compound: Nc1nc2c(nc(Br)n2C2OC3COP(=O)(O)O[C@@H]3C2O)c(=O)[nH]1 (stereo partly drawn)
studyTarget: N-terminal Xaa-Pro-Lys N-methyltransferase 1 (Homo sapiens) (UniProt Q9BV86)
classLabel: inactive
--
compound: Cn1c(=O)[nH]c2ncn(C)c2c1=O
studyTarget: N-terminal Xaa-Pro-Lys N-methyltransferase 1 (Homo sapiens) (UniProt Q9BV86)
classLabel: inactive
--
compound: c1ccc2c(c1)CC(N1CCN(c3cccc4c3OCCO4)CC1)C2
studyTarget: N-terminal Xaa-Pro-Lys N-methyltransferase 1 (Homo sapiens) (UniProt Q9BV86)
classLabel: inactive
--
compound: COC(=O)C(C)(N)Cc1ccc(O)cc1 (stereo not drawn)
studyTarget: N-terminal Xaa-Pro-Lys N-methyltransferase 1 (Homo sapiens) (UniProt Q9BV86)
classLabel: inactive
--
compound: C=CCn1c(=O)c2c(nc(-c3ccc(S(=O)(=O)O)cc3)n2C)n(C)c1=O
studyTarget: N-terminal Xaa-Pro-Lys N-methyltransferase 1 (Homo sapiens) (UniProt Q9BV86)
classLabel: active
--
compound: C[N+](C)(C)CC=O
studyTarget: N-terminal Xaa-Pro-Lys N-methyltransferase 1 (Homo sapiens) (UniProt Q9BV86)
classLabel: inactive
--
compound: Nc1ncnc2c1nc(Sc1ccc(Cl)cc1)n2[C@H]1OC2COP(=O)(O)O[C@@H]2C1O (stereo partly drawn)
studyTarget: N-terminal Xaa-Pro-Lys N-methyltransferase 1 (Homo sapiens) (UniProt Q9BV86)
classLabel: inactive
--
compound: NCC(O)(CS(=O)(=O)O)c1ccc(Cl)cc1 (stereo not drawn)
studyTarget: N-terminal Xaa-Pro-Lys N-methyltransferase 1 (Homo sapiens) (UniProt Q9BV86)
classLabel: inactive
--
compound: Oc1ccc(/C=C/c2ccc(/C=C/c3ccc(O)cc3)c(Br)c2)cc1
studyTarget: N-terminal Xaa-Pro-Lys N-methyltransferase 1 (Homo sapiens) (UniProt Q9BV86)
classLabel: inactive
--
compound: Cn1cc(C(=O)OCC2CCN(CCNS(C)(=O)=O)CC2)c2ccccc21
studyTarget: N-terminal Xaa-Pro-Lys N-methyltransferase 1 (Homo sapiens) (UniProt Q9BV86)
classLabel: inactive
--
compound: CCCCCCCCCC[Si](C)(C)CCC(=O)NC(Cc1ccc(C)cc1)c1ccccc1 (stereo not drawn)
studyTarget: N-terminal Xaa-Pro-Lys N-methyltransferase 1 (Homo sapiens) (UniProt Q9BV86)
classLabel: inactive
--
compound: NC(N)=NC(N)=Nc1ccccc1
studyTarget: N-terminal Xaa-Pro-Lys N-methyltransferase 1 (Homo sapiens) (UniProt Q9BV86)
classLabel: inactive
--
compound: CC(=O)N[C@@H](Cc1c[nH]c2ccccc12)C(=O)OCc1cc(C(F)(F)F)cc(C(F)(F)F)c1
studyTarget: N-terminal Xaa-Pro-Lys N-methyltransferase 1 (Homo sapiens) (UniProt Q9BV86)
classLabel: inactive
--
compound: CCCCC[C@H](CC(=O)NO)C(=O)N[C@H](C(=O)N1CCC[C@H]1CO)C(C)C
studyTarget: N-terminal Xaa-Pro-Lys N-methyltransferase 1 (Homo sapiens) (UniProt Q9BV86)
classLabel: inactive
--
compound: NC(N)=NC(N)=Nc1cccc(Cl)c1
studyTarget: N-terminal Xaa-Pro-Lys N-methyltransferase 1 (Homo sapiens) (UniProt Q9BV86)
classLabel: inactive
--
compound: CCCC[C@@]1(C2CCCC2)Cc2cc(OCC(=O)O)c(Cl)c(Cl)c2C1=O
studyTarget: N-terminal Xaa-Pro-Lys N-methyltransferase 1 (Homo sapiens) (UniProt Q9BV86)
classLabel: inactive
--
compound: N=C(N)c1ccccc1
studyTarget: N-terminal Xaa-Pro-Lys N-methyltransferase 1 (Homo sapiens) (UniProt Q9BV86)
classLabel: inactive
--
compound: CC(=O)O[C@H]1CC2(C)[C@@H](C[C@@H](O)[C@H]3[C@@]4(C)CC[C@@H](O)[C@@H](C)[C@@H]4CC[C@@]32C)C1=C(CCC=C(C)C)C(=O)O (stereo partly drawn)
studyTarget: N-terminal Xaa-Pro-Lys N-methyltransferase 1 (Homo sapiens) (UniProt Q9BV86)
classLabel: inactive
--
compound: CCSC(=N)N
studyTarget: N-terminal Xaa-Pro-Lys N-methyltransferase 1 (Homo sapiens) (UniProt Q9BV86)
classLabel: inactive
--
compound: c1ccc(C2CN3CCSC3=N2)cc1 (stereo not drawn)
studyTarget: N-terminal Xaa-Pro-Lys N-methyltransferase 1 (Homo sapiens) (UniProt Q9BV86)
classLabel: inactive
--
compound: CCCn1c(=O)c2[nH]c(-c3ccc(S(=O)(=O)O)cc3)nc2n(CCC)c1=O
studyTarget: N-terminal Xaa-Pro-Lys N-methyltransferase 1 (Homo sapiens) (UniProt Q9BV86)
classLabel: inactive
--
compound: O=C(O)C1CCNCC1
studyTarget: N-terminal Xaa-Pro-Lys N-methyltransferase 1 (Homo sapiens) (UniProt Q9BV86)
classLabel: inactive

Measured values drawn from PubChem BioAssay (NCATS) for this set.
